I'd be grateful if you could share measured pIC50 for these entries.
- assay_target: NR2B (Rattus norvegicus (Rat))
- Sequence (Q00960 27-1482, other chains not shown): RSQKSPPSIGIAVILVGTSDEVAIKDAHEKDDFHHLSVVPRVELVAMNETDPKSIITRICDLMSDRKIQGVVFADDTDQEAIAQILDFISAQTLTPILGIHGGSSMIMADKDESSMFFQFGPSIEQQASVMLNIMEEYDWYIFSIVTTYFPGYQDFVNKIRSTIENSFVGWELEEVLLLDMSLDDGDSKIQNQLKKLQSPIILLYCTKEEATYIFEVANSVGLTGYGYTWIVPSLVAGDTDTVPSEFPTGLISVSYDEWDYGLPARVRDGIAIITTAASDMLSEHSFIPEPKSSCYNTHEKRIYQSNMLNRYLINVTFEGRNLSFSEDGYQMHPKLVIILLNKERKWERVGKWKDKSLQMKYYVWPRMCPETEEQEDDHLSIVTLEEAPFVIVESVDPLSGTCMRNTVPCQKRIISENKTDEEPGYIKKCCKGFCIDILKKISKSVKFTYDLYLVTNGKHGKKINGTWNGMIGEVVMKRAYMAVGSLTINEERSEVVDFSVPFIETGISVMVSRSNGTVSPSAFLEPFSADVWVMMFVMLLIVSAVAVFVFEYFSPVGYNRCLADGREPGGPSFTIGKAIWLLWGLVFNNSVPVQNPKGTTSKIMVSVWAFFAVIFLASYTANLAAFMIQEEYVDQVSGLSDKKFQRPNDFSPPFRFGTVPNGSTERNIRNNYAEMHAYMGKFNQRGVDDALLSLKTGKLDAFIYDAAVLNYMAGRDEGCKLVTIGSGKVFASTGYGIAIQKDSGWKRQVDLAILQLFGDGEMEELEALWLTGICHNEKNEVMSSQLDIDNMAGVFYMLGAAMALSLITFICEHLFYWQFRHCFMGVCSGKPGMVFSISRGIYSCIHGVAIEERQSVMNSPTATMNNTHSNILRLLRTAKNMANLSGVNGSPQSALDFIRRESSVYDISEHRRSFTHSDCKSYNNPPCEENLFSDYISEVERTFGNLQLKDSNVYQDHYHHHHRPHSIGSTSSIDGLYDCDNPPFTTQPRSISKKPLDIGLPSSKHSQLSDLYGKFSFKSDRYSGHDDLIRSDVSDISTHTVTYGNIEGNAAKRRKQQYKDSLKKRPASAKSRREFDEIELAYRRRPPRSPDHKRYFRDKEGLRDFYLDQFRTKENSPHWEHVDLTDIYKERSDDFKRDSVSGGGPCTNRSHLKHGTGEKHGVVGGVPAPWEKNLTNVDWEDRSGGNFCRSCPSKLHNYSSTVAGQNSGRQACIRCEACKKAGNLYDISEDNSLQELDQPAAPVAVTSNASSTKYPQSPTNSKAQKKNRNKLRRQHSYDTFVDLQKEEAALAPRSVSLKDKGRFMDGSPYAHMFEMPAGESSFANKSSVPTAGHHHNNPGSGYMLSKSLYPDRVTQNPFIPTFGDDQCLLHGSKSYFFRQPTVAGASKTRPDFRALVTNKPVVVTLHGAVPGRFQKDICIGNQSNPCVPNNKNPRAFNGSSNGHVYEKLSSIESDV
- method_summary: NR2B rat cortical neuron calcium influx assay
- setup_conditions: rat cortical neurons, glutamate and glycine stimulated calcium influx
Give bare numbers, as −log10 of the molar value.

The examples below pair each entry with its known result.
O=C1CCc2cc([C@H](O)CN3C[C@H]4C[C@H](Oc5ccc(F)cc5)C[C@@]4(O)C3)ccc2N1 (single isomer, unassigned) [Example 22B] = 6.38
O=C1CCc2cc([C@H](O)CN3C[C@H]4C[C@H](Oc5cc(F)ccc5F)C[C@@]4(O)C3)ccc2N1 (single isomer, unassigned) [Example 26B] = 6.33
O=C1CCc2cc([C@@H](O)CN3C[C@@H]4C[C@@H](Oc5ccc(F)cc5)C[C@]4(O)C3)ccc2N1 (single isomer, unassigned) [Example 22C] = 8.85

Turning to the following compound.
Exercise: What measured pIC50 goes with O=C1CCc2cc(C(O)CN3CC4CC(Oc5ccccc5F)CC4(O)C3)ccc2N1 (stereo in doubt) ?
Solution: 9.23
